# targetOfAssay: NPP1 (Homo sapiens)
# Sequence (P22413 1-925): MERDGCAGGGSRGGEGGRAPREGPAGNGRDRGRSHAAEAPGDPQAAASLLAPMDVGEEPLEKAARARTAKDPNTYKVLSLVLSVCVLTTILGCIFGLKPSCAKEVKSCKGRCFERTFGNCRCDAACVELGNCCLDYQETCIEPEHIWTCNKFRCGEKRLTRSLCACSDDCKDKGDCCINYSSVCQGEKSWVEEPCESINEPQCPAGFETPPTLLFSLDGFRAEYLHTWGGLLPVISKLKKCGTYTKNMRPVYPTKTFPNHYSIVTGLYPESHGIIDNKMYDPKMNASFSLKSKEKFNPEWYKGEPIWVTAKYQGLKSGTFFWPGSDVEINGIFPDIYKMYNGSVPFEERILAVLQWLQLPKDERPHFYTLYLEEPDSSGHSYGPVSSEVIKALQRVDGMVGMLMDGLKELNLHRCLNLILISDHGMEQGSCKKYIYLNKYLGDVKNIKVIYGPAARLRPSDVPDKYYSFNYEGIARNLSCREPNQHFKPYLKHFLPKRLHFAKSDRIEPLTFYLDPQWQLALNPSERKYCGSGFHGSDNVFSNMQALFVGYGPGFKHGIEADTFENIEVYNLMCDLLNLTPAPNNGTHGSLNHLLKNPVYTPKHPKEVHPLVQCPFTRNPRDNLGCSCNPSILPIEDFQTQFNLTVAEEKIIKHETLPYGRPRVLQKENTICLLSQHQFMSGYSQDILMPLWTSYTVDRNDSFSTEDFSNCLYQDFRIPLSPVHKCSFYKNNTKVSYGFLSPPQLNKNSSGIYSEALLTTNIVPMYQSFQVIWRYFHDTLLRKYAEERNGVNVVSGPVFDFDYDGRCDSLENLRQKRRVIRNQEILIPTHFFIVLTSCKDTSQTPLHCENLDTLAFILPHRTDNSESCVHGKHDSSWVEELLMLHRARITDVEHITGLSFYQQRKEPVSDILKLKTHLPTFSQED
# testName: Inhibition of human NPP1, pNP-TMP as substrate (analogues 9-12)
# Assay type: biochemical
# conditionLabel: pNP-TMP as a substrate; mean±SEM; read-out: Ki (μM), NPP1 inhibition

compound | targetOfAssay | Ki / µM
O=c1ccn([C@@H]2O[C@H](COP(=S)(S)OP(=O)(O)OP(=O)(O)O)[C@@H](O)[C@H]2O)c(=O)[nH]1 (some centres unmarked) | NPP1 (Homo sapiens) | 0.24
O=c1ccn([C@@H]2O[C@H](COP(=S)(S)OP(=O)(O)CP(=O)(O)O)[C@@H](O)[C@H]2O)c(=O)[nH]1 (some centres unmarked) | NPP1 (Homo sapiens) | 1.11

* * *

Documented Ki across a set of compounds
# targetOfAssay: UniProtKB P21589
# Sequence (P21589 27-549): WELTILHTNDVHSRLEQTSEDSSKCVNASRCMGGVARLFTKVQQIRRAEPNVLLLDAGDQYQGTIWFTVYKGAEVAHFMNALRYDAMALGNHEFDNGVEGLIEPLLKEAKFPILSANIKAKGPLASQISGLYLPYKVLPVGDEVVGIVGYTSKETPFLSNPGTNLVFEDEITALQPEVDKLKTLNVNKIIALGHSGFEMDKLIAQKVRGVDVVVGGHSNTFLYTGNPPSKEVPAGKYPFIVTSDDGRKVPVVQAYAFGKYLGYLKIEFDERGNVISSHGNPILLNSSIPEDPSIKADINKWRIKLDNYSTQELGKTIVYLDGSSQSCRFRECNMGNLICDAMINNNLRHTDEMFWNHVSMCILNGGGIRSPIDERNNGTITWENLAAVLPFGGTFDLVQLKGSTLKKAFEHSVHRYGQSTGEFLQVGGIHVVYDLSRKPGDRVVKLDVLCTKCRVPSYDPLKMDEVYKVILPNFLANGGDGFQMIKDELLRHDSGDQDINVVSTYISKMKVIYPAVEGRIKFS
# testName: Inhibition of human CD73, 5 μM [2,8-3H]AMP as substrate
# Type: biochemical
# conditionLabel: 5 μM [2,8-3H]AMP as a substrate; read-out: Ki ± SD (μM), Human CD73
parameter: Ki (µM)

molecularString | cmp | reportedMeasurement
Nc1ncnc2c1ncn2[C@@H]1O[C@H](COS(=O)(=O)CS(=O)(=O)O)[C@@H](O)[C@H]1O | > | 10
Nc1ncnc2c1ncn2COCCOP(=O)(O)O | > | 10
Nc1ncnc2c1ncn2COCCOP(=O)(O)C(Cl)(Cl)P(=O)(O)O | > | 10
Nc1ncnc2c1ncn2[C@@H]1O[C@H](COP(=O)(O)CS(=O)(=O)O)[C@@H](O)[C@H]1O | = | 49.5
Nc1ncnc2c1ncn2COCCOP(=O)(O)CP(=O)(O)O | = | 12.6

Source listed as patent US20220220135A1.
